Each entry below carries its recorded inhibition.
- experimental target: UniProtKB Q13555
- assay text: Caliper, Mobility shift assay off-chip
- test conditions: compound 0.02 µM
Please reply with the bare figure in % and do not write the unit itself.

GET /values?readout=inhibition&item= Cc1ccc(Nc2nccc(N(C)c3ccc4c(C)n(C)nc4c3)n2)cc1S(N)(=O)=O
1.9

***
Please look up its inhibition: CNC(=O)c1cc(Oc2ccc(NC(=O)Nc3ccc(Cl)c(C(F)(F)F)c3)cc2)ccn1
-7

What do we get for CNC(=O)c1ccccc1Sc1ccc2c(/C=C/c3ccccn3)n[nH]c2c1 ?
-1.1

For COc1cc2c(Oc3ccc4[nH]c(C)cc4c3F)ncnc2cc1OCCCN1CCCC1 then?
0.2

---

- experimental target: UniProt Q9BYP7
- assay text: Caliper, Mobility shift assay off-chip
- test conditions: compound 0.2 µM
Each entry below carries its reported inhibition.

Value wanted: inhibition (UniProt Q9BYP7) of entry CNC(=O)c1cc(Oc2ccc(NC(=O)Nc3ccc(Cl)c(C(F)(F)F)c3)cc2)ccn1
3.9%

---

- experimental target: STK3 (human) (UniProt Q13188)
- Sequence (Q13188 whole entry, looked up): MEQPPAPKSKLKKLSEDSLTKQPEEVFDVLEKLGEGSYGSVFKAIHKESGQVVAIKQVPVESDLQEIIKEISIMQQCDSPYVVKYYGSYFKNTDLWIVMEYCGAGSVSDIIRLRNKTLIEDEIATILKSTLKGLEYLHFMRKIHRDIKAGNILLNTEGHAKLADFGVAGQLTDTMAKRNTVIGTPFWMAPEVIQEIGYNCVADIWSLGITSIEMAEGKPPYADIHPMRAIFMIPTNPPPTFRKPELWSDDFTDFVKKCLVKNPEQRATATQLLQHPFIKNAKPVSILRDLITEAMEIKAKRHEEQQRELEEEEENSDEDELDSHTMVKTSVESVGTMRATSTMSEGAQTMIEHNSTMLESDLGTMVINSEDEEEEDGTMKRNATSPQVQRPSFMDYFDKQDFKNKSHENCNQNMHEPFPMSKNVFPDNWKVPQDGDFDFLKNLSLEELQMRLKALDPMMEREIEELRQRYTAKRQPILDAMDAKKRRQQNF
- assay text: Caliper, Mobility shift assay off-chip
- test conditions: compound 0.02 µM
measured parameter: inhibition

inhibition lookup needed for CNC(=O)c1ccccc1Sc1ccc2c(/C=C/c3ccccn3)n[nH]c2c1 , thanks.
-2.3%

Next: CNC(=O)c1cc(Oc2ccc(NC(=O)Nc3ccc(Cl)c(C(F)(F)F)c3)cc2)ccn1
-3.3%

Try the molecule COc1cc2c(Oc3ccc4[nH]c(C)cc4c3F)ncnc2cc1OCCCN1CCCC1
-2.4%

// below: inhibition requested for another molecule
Looking for the measured inhibition of Cc1ccc(Nc2nccc(N(C)c3ccc4c(C)n(C)nc4c3)n2)cc1S(N)(=O)=O , can you help?
-1.9%

---

Overview of recorded inhibition for various compounds
- experimental target: RPS6KA1 KD1 KD2 (human)
- assay text: Caliper, Mobility shift assay off-chip
- test conditions: compound 0.02 µM
Record the result as number plus unit.

Please review the entries below; each comes with its answer.
Request - read-out inhibition | tested on RPS6KA1 KD1 KD2 (human) | compound CNC(=O)c1cc(Oc2ccc(NC(=O)Nc3ccc(Cl)c(C(F)(F)F)c3)cc2)ccn1
-3.6%

Next: COc1cc2c(Oc3ccc4[nH]c(C)cc4c3F)ncnc2cc1OCCCN1CCCC1
-3.4%

Now the compound Cc1ccc(Nc2nccc(N(C)c3ccc4c(C)n(C)nc4c3)n2)cc1S(N)(=O)=O
0.5%

---
Tell me reported inhibition for CNC(=O)c1ccccc1Sc1ccc2c(/C=C/c3ccccn3)n[nH]c2c1 , tested with RPS6KA1 KD1 KD2 (human).
-2.8%

---

- experimental target: PIM3 (human) (UniProt Q86V86)
- assay text: Caliper, Mobility shift assay off-chip
- test conditions: compound 0.02 µM
measured parameter: inhibition (%)
Give your result in % as a bare value.

Below, 3 compounds whose answers are already recorded.
Item CNC(=O)c1ccccc1Sc1ccc2c(/C=C/c3ccccn3)n[nH]c2c1 has what recorded inhibition?
-5.9

Next: COc1cc2c(Oc3ccc4[nH]c(C)cc4c3F)ncnc2cc1OCCCN1CCCC1
-1.8

Param item: CNC(=O)c1cc(Oc2ccc(NC(=O)Nc3ccc(Cl)c(C(F)(F)F)c3)cc2)ccn1
-1.8

Now examine the next entry.
Any idea what inhibition was measured for Cc1ccc(Nc2nccc(N(C)c3ccc4c(C)n(C)nc4c3)n2)cc1S(N)(=O)=O ?
-3.4

---

Recorded inhibition by entry
- experimental target: PGK1 (human)
- assay text: Caliper, Mobility shift assay off-chip
- test conditions: compound 0.2 µM
Lab book: enter the figure in %, no units written.

Answered examples (3):
Which value of inhibition has been reported for COc1cc2c(Oc3ccc4[nH]c(C)cc4c3F)ncnc2cc1OCCCN1CCCC1 in the records?
-6.5

Moving on to the next molecule: CNC(=O)c1cc(Oc2ccc(NC(=O)Nc3ccc(Cl)c(C(F)(F)F)c3)cc2)ccn1
1.9

Request: Cc1ccc(Nc2nccc(N(C)c3ccc4c(C)n(C)nc4c3)n2)cc1S(N)(=O)=O
-2.2

Continue with the molecule presented below.
# input molecule: CCN(CC)CCNC(=O)c1c(C)[nH]c(/C=C2\C(=O)Nc3ccc(F)cc32)c1C ; wanted: its inhibition
12.5

---

- experimental target: WNK2 (human) (UniProt Q9Y3S1)
- Sequence (Q9Y3S1 whole entry, looked up): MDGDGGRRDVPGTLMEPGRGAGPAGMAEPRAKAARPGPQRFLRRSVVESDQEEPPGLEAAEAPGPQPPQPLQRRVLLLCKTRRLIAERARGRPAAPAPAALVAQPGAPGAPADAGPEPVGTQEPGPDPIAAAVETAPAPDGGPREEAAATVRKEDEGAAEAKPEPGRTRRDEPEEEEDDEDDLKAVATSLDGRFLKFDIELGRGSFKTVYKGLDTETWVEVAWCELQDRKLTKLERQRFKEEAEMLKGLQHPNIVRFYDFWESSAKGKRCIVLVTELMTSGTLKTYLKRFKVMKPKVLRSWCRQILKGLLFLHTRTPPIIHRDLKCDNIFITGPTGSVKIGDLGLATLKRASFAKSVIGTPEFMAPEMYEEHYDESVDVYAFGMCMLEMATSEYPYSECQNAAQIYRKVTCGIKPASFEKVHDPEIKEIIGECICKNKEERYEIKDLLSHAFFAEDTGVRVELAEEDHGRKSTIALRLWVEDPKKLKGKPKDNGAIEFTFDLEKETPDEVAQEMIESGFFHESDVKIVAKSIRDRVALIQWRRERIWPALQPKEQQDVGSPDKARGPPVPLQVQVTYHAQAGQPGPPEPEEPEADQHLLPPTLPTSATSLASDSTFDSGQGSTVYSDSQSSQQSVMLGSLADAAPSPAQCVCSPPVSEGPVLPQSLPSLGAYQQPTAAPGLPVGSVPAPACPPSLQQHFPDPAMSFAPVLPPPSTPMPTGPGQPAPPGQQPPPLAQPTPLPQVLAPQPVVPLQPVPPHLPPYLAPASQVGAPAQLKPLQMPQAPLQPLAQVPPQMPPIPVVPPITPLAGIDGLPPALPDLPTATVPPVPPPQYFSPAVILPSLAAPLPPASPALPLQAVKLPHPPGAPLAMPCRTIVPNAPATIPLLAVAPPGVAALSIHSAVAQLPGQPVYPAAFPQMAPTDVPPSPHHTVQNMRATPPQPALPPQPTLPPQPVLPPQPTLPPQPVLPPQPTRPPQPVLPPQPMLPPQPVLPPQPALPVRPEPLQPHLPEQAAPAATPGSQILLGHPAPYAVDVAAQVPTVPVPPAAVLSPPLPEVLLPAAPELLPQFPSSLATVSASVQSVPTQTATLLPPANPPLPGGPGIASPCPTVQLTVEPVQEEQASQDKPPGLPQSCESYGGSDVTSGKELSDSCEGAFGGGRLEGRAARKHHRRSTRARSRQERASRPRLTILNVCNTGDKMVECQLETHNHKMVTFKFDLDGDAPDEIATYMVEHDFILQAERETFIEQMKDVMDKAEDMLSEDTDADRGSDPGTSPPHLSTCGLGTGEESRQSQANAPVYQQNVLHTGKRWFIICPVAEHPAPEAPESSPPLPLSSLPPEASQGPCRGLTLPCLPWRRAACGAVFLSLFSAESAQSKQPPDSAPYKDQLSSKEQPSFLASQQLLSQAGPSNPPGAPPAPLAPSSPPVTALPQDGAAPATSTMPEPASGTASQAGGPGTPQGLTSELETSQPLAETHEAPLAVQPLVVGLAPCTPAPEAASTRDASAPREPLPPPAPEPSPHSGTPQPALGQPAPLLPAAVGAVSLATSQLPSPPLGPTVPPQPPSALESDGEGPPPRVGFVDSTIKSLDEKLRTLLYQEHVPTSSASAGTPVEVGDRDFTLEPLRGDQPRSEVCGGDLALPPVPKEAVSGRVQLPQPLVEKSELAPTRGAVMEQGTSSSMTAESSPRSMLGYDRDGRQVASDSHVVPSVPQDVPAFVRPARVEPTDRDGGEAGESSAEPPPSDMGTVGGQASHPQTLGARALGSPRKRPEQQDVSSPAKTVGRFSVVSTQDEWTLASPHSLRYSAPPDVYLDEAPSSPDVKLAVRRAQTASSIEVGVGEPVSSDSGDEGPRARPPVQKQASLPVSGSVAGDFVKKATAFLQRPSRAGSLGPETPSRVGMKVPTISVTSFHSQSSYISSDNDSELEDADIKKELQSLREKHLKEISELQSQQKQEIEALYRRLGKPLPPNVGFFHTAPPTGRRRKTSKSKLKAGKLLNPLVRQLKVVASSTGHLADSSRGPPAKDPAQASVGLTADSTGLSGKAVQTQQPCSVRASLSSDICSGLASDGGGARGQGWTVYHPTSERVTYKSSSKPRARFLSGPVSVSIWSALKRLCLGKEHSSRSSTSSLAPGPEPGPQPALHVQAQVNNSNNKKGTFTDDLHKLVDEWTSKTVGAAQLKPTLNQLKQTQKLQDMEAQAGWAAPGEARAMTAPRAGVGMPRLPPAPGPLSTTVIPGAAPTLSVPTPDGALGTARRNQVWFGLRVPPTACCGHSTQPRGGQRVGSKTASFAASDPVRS
- assay text: Caliper, Mobility shift assay off-chip
- test conditions: compound 0.2 µM
measured parameter: inhibition (%)
Give the value in % but do not write % after it.

Reported inhibition for WNK2 (human) (UniProt Q9Y3S1), given CNC(=O)c1cc(Oc2ccc(NC(=O)Nc3ccc(Cl)c(C(F)(F)F)c3)cc2)ccn1 ?
3.6

Another compound to look at: COc1cc2c(Oc3ccc4[nH]c(C)cc4c3F)ncnc2cc1OCCCN1CCCC1
2.8

# repeat for CCN(CC)CCNC(=O)c1c(C)[nH]c(/C=C2\C(=O)Nc3ccc(F)cc32)c1C
1.7

Further cases:
Tell me reported inhibition for Cc1ccc(Nc2nccc(N(C)c3ccc4c(C)n(C)nc4c3)n2)cc1S(N)(=O)=O , tested with WNK2 (human) (UniProt Q9Y3S1).
4.3

---

- experimental target: UniProtKB P53355
- Sequence (P53355 whole entry, looked up): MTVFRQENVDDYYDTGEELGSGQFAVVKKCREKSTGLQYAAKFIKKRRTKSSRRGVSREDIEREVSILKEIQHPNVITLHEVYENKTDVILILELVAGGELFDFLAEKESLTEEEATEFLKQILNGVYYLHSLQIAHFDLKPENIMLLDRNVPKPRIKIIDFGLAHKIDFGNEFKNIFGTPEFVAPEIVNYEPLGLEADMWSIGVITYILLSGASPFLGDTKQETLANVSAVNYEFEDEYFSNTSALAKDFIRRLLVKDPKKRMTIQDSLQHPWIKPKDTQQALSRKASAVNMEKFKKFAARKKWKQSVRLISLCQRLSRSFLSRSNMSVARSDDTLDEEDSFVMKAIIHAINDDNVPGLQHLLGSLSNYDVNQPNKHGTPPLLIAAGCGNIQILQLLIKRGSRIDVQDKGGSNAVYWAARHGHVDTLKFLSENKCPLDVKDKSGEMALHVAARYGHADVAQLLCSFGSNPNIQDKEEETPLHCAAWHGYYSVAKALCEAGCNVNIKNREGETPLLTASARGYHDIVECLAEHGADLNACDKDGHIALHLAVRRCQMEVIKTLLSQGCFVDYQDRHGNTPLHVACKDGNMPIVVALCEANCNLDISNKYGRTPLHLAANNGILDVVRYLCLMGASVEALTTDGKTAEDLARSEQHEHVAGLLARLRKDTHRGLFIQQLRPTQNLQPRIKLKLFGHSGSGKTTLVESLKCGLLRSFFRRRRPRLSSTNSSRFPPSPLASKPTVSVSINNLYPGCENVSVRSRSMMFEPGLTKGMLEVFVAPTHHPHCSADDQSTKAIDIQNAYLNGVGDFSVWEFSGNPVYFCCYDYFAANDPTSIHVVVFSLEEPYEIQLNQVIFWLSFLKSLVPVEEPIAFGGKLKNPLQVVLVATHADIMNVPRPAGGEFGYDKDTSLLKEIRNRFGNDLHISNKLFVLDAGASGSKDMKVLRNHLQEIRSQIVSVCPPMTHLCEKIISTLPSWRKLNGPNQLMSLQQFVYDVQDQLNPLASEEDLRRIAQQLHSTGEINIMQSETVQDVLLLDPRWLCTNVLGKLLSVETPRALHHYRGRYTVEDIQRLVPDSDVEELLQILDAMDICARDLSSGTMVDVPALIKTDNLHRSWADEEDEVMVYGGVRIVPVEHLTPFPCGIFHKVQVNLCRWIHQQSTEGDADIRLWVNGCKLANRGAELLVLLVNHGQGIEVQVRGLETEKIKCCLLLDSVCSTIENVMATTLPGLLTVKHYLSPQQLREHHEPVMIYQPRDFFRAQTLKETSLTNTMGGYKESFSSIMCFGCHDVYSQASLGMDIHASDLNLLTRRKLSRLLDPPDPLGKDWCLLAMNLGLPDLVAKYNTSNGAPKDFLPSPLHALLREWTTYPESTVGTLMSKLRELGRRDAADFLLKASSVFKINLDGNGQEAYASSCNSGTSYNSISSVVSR
- assay text: Caliper, Mobility shift assay off-chip
- test conditions: compound 0.2 µM
measured parameter: inhibition (%)
Form entry: value (%) — number only.

If you can, please state the reported inhibition value of Cc1ccc(Nc2nccc(N(C)c3ccc4c(C)n(C)nc4c3)n2)cc1S(N)(=O)=O .
6.7

Here is the next molecule: COc1cc2c(Oc3ccc4[nH]c(C)cc4c3F)ncnc2cc1OCCCN1CCCC1
7.4

Thanks! And CNC(=O)c1cc(Oc2ccc(NC(=O)Nc3ccc(Cl)c(C(F)(F)F)c3)cc2)ccn1 ?
1.1

Field: next molecule
Consider the molecule shown here: CCN(CC)CCNC(=O)c1c(C)[nH]c(/C=C2\C(=O)Nc3ccc(F)cc32)c1C What is its recorded inhibition?
64.4

---

Below, each entry is listed alongside its reported inhibition.
- experimental target: WNK3 (human)
- assay text: Caliper, Mobility shift assay off-chip
- test conditions: compound 0.02 µM
Entry rule: numbers only, all in %.

Please state recorded inhibition (tested on WNK3 (human)) of CNC(=O)c1cc(Oc2ccc(NC(=O)Nc3ccc(Cl)c(C(F)(F)F)c3)cc2)ccn1
-8

Further cases:
Under WNK3 (human): inhibition value of CNC(=O)c1ccccc1Sc1ccc2c(/C=C/c3ccccn3)n[nH]c2c1 ?
-1.4

How about this molecule: COc1cc2c(Oc3ccc4[nH]c(C)cc4c3F)ncnc2cc1OCCCN1CCCC1
0.8

// same read-out, input: Cc1ccc(Nc2nccc(N(C)c3ccc4c(C)n(C)nc4c3)n2)cc1S(N)(=O)=O
-0.8

---

Reported inhibition is given for each of the following molecules.
- experimental target: MAPK14 (human) (UniProt Q16539)
- assay text: Caliper, Mobility shift assay off-chip
- test conditions: compound 0.2 µM
State the answer as a number, implicitly in %.

The examples below pair each entry with its known result.
What does the record list as inhibition for Cc1ccc(Nc2nccc(N(C)c3ccc4c(C)n(C)nc4c3)n2)cc1S(N)(=O)=O ?
-2.5

Query CNC(=O)c1cc(Oc2ccc(NC(=O)Nc3ccc(Cl)c(C(F)(F)F)c3)cc2)ccn1 next
63.8

Same for COc1cc2c(Oc3ccc4[nH]c(C)cc4c3F)ncnc2cc1OCCCN1CCCC1
-4.9

// switching to the query molecule
I am curious: what inhibition value has been reported for CCN(CC)CCNC(=O)c1c(C)[nH]c(/C=C2\C(=O)Nc3ccc(F)cc32)c1C ?
-6.9

---

- experimental target: WNK1 (human) (UniProt Q9H4A3)
- assay text: Caliper, Mobility shift assay off-chip
- test conditions: compound 0.2 µM
measured parameter: inhibition

Past entries and their recorded results:
Bench note: what inhibition did Cc1ccc(Nc2nccc(N(C)c3ccc4c(C)n(C)nc4c3)n2)cc1S(N)(=O)=O show?
5.1%

How about this compound: CNC(=O)c1cc(Oc2ccc(NC(=O)Nc3ccc(Cl)c(C(F)(F)F)c3)cc2)ccn1
6.3%

And CCN(CC)CCNC(=O)c1c(C)[nH]c(/C=C2\C(=O)Nc3ccc(F)cc32)c1C ?
3.2%

***
Would you mind telling me what inhibition value was observed for COc1cc2c(Oc3ccc4[nH]c(C)cc4c3F)ncnc2cc1OCCCN1CCCC1 ?
2.6%

---

- experimental target: PAK4 (human) (UniProt O96013)
- Sequence (O96013 whole entry, looked up): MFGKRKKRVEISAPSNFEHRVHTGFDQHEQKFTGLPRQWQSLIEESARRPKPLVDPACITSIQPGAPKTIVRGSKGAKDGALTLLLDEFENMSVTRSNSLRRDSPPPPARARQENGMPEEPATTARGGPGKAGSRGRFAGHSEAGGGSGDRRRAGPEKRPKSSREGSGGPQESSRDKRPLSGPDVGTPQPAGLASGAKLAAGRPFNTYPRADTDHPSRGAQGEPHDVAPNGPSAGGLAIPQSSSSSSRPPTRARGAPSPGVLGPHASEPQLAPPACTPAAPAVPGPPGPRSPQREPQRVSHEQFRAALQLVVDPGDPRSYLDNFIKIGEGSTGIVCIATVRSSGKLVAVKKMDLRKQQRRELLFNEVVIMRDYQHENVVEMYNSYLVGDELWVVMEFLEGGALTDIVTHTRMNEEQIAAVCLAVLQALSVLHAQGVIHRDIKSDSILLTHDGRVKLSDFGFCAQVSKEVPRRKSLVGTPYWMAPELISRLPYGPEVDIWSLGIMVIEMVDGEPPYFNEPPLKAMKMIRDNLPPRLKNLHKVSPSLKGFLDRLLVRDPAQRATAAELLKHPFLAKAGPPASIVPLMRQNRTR
- assay text: Caliper, Mobility shift assay off-chip
- test conditions: compound 0.02 µM
measured parameter: inhibition (%)
Response body: numeric value in %, unit text excluded.

Request the reported inhibition associated with COc1cc2c(Oc3ccc4[nH]c(C)cc4c3F)ncnc2cc1OCCCN1CCCC1
6.5

Quick one: Cc1ccc(Nc2nccc(N(C)c3ccc4c(C)n(C)nc4c3)n2)cc1S(N)(=O)=O
0.9

Follow-up entry: CNC(=O)c1cc(Oc2ccc(NC(=O)Nc3ccc(Cl)c(C(F)(F)F)c3)cc2)ccn1
-8

Continuing:
# inhibition lookup, item CNC(=O)c1ccccc1Sc1ccc2c(/C=C/c3ccccn3)n[nH]c2c1
0.8
